# Measured on: T1, monomeric cynomolgus LTBR ECD (S28-M227) Fc fusion avi biotinylated (P1AE4411) (cynomolgus, UniProt P0DOX5 223-449 = IgG part, biotinylated avi tag)
# T1 construct: also called cyno LTBR
# Test method notes: SPR, IgG captured;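 note: rate constants and KD obtained by fitting double-referenced sensorgrams to a 1:1 Langmuir binding model, with dissociation followed for 600 s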
Listed here: items and their measured koff.
Please give a number only; it is taken to be in s⁻¹.

// solved cases for koff follow
Binder	koff [s⁻¹]
P1AE9459 (antibody, human IgG1, kappa, L234A L235A, V domains shown, human IgG1 PG LALA; from transgenic rabbit immunization) VH: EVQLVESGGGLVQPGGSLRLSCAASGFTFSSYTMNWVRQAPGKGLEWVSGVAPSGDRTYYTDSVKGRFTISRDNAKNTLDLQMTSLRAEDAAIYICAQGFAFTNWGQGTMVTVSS VL: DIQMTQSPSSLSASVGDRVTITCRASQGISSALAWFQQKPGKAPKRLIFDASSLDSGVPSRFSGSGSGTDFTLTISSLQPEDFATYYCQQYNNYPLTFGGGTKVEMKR	0.000191
P1AE9452 (antibody, human IgG1, kappa, L234A L235A, V domains shown, human IgG1 PG LALA; from transgenic rabbit immunization; also called LTBR (9452)) VH: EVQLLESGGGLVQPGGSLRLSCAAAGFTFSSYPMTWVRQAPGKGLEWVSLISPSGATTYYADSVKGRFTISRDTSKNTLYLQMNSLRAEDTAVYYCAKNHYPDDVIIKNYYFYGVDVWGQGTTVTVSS VL: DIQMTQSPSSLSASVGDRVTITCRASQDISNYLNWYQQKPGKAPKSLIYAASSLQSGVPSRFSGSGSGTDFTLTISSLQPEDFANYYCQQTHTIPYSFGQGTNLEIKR	5.92e-05

# input for lookup
Return the recorded koff value; entry: P1AF0079 (antibody, human IgG1, kappa, L234A L235A, V domains shown, human IgG1 PG LALA; from transgenic rabbit immunization; also called LTBR (0079)) VH: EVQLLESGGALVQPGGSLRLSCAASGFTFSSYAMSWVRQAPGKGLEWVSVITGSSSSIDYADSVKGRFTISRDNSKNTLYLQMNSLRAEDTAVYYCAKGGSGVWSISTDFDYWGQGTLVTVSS VL: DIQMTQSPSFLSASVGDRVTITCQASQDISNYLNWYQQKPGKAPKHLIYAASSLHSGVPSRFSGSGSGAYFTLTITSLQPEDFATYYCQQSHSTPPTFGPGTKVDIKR
0.00247
